- Test system: vitiligo guinea pig model caused by hydroquinone depigmentation
- Assay Comment: Vitiligo guinea pig model caused by hydroquinone depigmentation: counts of epidermal MC and melanin-granule-containing basal cells
- Assay type: in vivo
- Details: guinea pig skin after hydroquinone decolorization, drug once a day for 30 days; average number per 100 epidermal basal cells; n = 10, x ± s
In this section we review reported Basal cells containing melanin granules count values for a set of compounds.
Property Measured: Basal cells containing melanin granules count

Compound | System Under Test | Numeric Result
CC(=O)Nc1ccc(C(=O)N2CCN(c3ccc(C)cc3)CC2c2ccccc2)cc1 (stereo not shown) | vitiligo guinea pig model caused by hydroquinone depigmentation | 36.8
O=C(c1ccc(-n2nnc3cccnc32)cc1)N(c1ncccc1Cl)[C@@H]1CCCNC1 | vitiligo guinea pig model caused by hydroquinone depigmentation | 38.8
Cc1cc(C(=O)C2=C(O)C(=O)N(CCCN3CCOCC3)C2c2ccncc2)ccc1OCc1ccccc1 (stereo not shown) | vitiligo guinea pig model caused by hydroquinone depigmentation | 36.9
COc1ccc(CCC(=O)N(c2nccc3ccccc23)[C@@H]2CCCNC2)cc1 | vitiligo guinea pig model caused by hydroquinone depigmentation | 36.5
